Assay: NCI Yeast Anticancer Drug Screen. Data for the wt2 strain (AID 169);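 also: 0% = growth of vehicle-treated yeast cultures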
Conditions: S. cerevisiae wt2 strain growth inhibition; at 11.0 µM; active compounds read high
Method: Growth inhibition of yeast strains with defined genetic alterations is measured as a screen for potential anti-cancer activity. Selected strains with alterations in DNA damage repair or cell cycle control were exposed to compounds and growth inhibition was measured relative to vehicle treated controls. The strain used in this assay is wt2
This is part of a sample that, as a whole, favours compounds with a hit. Of some 79,000 tested, about 15% had one in any assay.
quantity-measured: growth inhibition (%)
Answers are plain numbers, in %.

Before answering, review these 5 worked examples.
compound | quantity-measured | measured-result
CC(=O)O/N=C/c1c2ccccc2cc2ccccc12 | growth inhibition | -2
CCOC(=O)/C=C1\CCCn2c1ncc(C(=O)OCC)c2=O | growth inhibition | 4
O=S(=O)(O)CC[S][Sn]([S]CCS(=O)(=O)O)([c]1ccccc1)[c]1ccccc1 | growth inhibition | 89
N#C/C(=C1C=C/C(=N\O)C(Cl)=C\1)c1ccccc1 | growth inhibition | -9
COc1cc(C(C)C(C(=O)O)C(=O)C(=O)O)cc(OC)c1OC (stereo unspecified) | growth inhibition | 2

Reported growth inhibition, compound O=C(O)/C=C\C(=O)NNc1ccc(Br)cc1 : ____
99

###

Experiment: NCI Yeast Anticancer Drug Screen. Data for the rad50EPP+ strain (AID 151);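 also: 0% = growth of vehicle-treated control cultures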
Details: S. cerevisiae rad50 mutant strain, at 11.0 µM, active compounds read high
The panel holds about 79,000 compounds, 15% with a hit somewhere; the sample as a whole holds those more often.
growth inhibition vs 20%: at or above is 1, below is 0.

compound | assigned-category
Oc1ccc(Br)cc1C=Nc1cccc(C(F)(F)F)c1 | 0
Nc1ccc2ncc(Nc3ccc(Cl)c(Cl)c3)nc2c1 | 0
O=c1[nH]c(=O)n(CCCO)cc1F | 0
O=S(=O)(O)c1ccc2c(N=Nc3c(O)ccc4ccccc34)cccc2c1 | 0
COC1=C(N=[N+]=[N-])C(=O)c2ncccc2C1=O | 1
CN(NC(=O)/C(=C/C=C/c1ccccc1)NC(=O)c1ccccc1)C1=C(Cl)C(=O)[N+](c2ccccc2)=CC1 | 1
O=C(CCCN1CCC2(CC1)OC(=O)N(c1ccccc1)C2=O)c1ccccc1 | 1
CC1=Cc2ccc(C)cc2C(=O)C1=O | 1

Threshold query (growth inhibition >= 20%) on COc1ccc(C(=O)OCCc2ccccc2)cc1
0

# check: growth inhibition of Cc1cccc[c]1[Sn]([Cl])([S]/C(C#N)=N/N=C/c1ccc(N(C)C)cc1)[c]1ccccc1C is greater than or equal to 20%
0

Item CC(C)(C)[Si](C)(C)OCC1OC(n2cnc3c(N)ncnc32)C2OC(=S)OC12 (stereo unspecified) with growth inhibition of 20% or above?
0

###

Assay: NCI Yeast Anticancer Drug Screen. Data for the mec2-1 strain (AID 157)
Details: S. cerevisiae mec2-1 strain, at 50.0 µM (retest, dose inferred, filed as 5.0), active compounds read high
About 79,000 compounds went through this panel and 15% of them were active in at least one assay; those are over-represented in the sample as a whole.
Please respond with reported growth inhibition for every item in the list.
Answers are plain numbers, in %.

molecule | quantity-measured | measured-result
C[Si](C)(C)Cc1ccccc1C(=O)O | growth inhibition | 86
O=C1c2ccccc2-c2ccc(NC(=O)C3CCCCC3C(=O)O)cc21 (stereo unspecified) | growth inhibition | 15

Give growth inhibition for all molecules that follow.
1. O=C(Nn1c(-c2ccccc2)nc2ccccc2c1=O)c1ccc(Cl)cc1
2. CN(C)CCn1c2ccccc2c2nc3cc4ccccc4cc3nc21
3. CCCCCCCCCCCCCCCCCN
4. CCCC(=O)OC(OC(=O)CCC)c1ccc([N+](=O)[O-])o1
5. Cc1[nH]nc(C(F)(F)F)c1N=NN(C)C
6. O=C(O)CN(CCNC(=O)OCC1c2ccccc2-c2ccccc21)CCNC(=O)OCC1c2ccccc2-c2ccccc21
7. CC1=NN(C(=O)CC(=O)N(C(=O)c2ccccc2)c2ccc(Cl)cc2)C(=O)C1N=Nc1ccc([N+](=O)[O-])cc1 (stereo unspecified)
8. O=C(CSS(=O)(=O)O)c1ccccc1

9
99
97
8
99
-6
56
-6

I am curious: what growth inhibition value has been reported for CC(=O)c1ccc(NCN2C(=O)c3ccccc3C2=O)cc1 ?
99

Just for reference, PubChem BioAssay (NCI) is where these values come from.
